All values here come from patent US5436261A.

- System: alpha2-adrenergic
- Protocol summary: In vivo study in pithed rats, pretreatment with yohimbine (alpha2-adrenergic component)
- Design: species or system rat (Sprague-Dawley)
- Experimental context: yohimbine (1 mg/kg) pretreatment
Readout name: Ratio C20 treated/C20 control, Yohimbine

C1=NC2(CCc3ccccc3C2)CN1 (stereo not drawn) = 4.7

Query: # return recorded Ratio C20 treated/C20 control, Yohimbine for input `Cc1ccc2c(c1)C[C@@]1(CC2)CNC=N1`
Result: 3.4

Query: # return recorded Ratio C20 treated/C20 control, Yohimbine for input COc1ccc2c(c1OC)CCC1(CNC=N1)C2 (stereo not drawn)
Result: 2.4

Query: # return recorded Ratio C20 treated/C20 control, Yohimbine for input COc1cc2c(cc1O)CCC1(CNC=N1)C2 (stereo not drawn)
Result: 2.9

Query: # return recorded Ratio C20 treated/C20 control, Yohimbine for input Cc1ccc2c(c1)CC1(CC2)CNC=N1 (stereo not drawn)
Result: 1.5

Query: # return recorded Ratio C20 treated/C20 control, Yohimbine for input CC(C)Oc1ccc2c(c1)CCC1(CNC=N1)C2 (stereo not drawn)
Result: 66
